Every entry's value here was drawn from patent US9932309B2.

Biological target: mTGR5 (Mus musculus, UniProt Q80SS6)
Construct: expressed in transfected cells; host or cells: HEK293 cells, transiently co-transfected with the pCRE TA-Luciferase reporter
Sequence (Q80SS6 1-329): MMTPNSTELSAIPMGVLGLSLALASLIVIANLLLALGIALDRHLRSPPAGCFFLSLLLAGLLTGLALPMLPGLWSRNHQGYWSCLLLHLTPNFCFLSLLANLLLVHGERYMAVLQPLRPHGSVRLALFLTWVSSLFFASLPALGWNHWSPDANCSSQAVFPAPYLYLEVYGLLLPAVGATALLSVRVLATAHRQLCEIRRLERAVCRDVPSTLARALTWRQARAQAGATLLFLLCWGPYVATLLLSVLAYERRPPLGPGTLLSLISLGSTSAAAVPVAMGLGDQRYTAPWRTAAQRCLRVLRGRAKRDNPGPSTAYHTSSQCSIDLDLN
Assay: TGR5/CRE Luciferase Assay (mTGR5)
Assay type: cell-based
Details: percentage of the 10 μM LCA value; HEK 293 cells transfected with mTGR5
Experimental: TGR5/CRE Luciferase Assay In the following Tables TGR5 activation by compounds of the invention and subsequent increase in intracellular cAMP were evaluated using a luciferase reporter gene assay. […] Luminescence was read with a Mithras plate reader (Berthold) or a Victor3™ V1420 (Perkin Elmer). […]
Sorting guide: entries reporting mTGR5 % trans beneath 60% go in the class 1 pile, the rest go in the class 0 pile.

Look over these answered cases.
COMPOUND	CATEGORY LABEL
COCCN1C(=O)CC(c2ccc(Cl)cc2)C(C(=O)OCc2ccc(OC)cc2)=C1C (stereo not shown) [Example 104]	class 0
CC1=C(C(=O)OCc2ccccc2)C(c2ccc(C)cc2)CC(=O)N1 (stereo not shown) [Compound 3]	class 1
COc1ccccc1COC(=O)C1=C(C)N(Cc2ccco2)C(=O)CC1c1ccc(Cl)cc1 (stereo not shown) [Compound 66]	class 0

input: Is mTGR5 % trans of C#CCN1C(=O)CC(c2ccc(Cl)cc2)C(C(=O)OCc2ccccc2)=C1C (stereo not shown) [Compound 40] strictly below 60%?
output: class 0

input: Is mTGR5 % trans of CC1=C(C(=O)OCc2ccccc2)C(c2ccc(Cl)cc2)CC(=O)N1CCN (stereo not shown) [Compound 53] strictly below 60%?
output: class 1

input: Is mTGR5 % trans of COCCN1C(=O)CC(c2ccncc2)C(C(=O)OCc2ccccc2OC)=C1C (stereo not shown) [Example 133] strictly below 60%?
output: class 0

input: Is mTGR5 % trans of CC1=C(C(=O)OCc2ccccc2)C(c2ccc(Cl)cc2)CC(=O)N1 (stereo not shown) [Compound 12] strictly below 60%?
output: class 1

input: Is mTGR5 % trans of CC1=C(C(=O)OCc2ccccc2)C(c2ccc(Cl)cc2)CC(=O)N1Cc1nc(C)no1 (stereo not shown) [Compound 59] strictly below 60%?
output: class 1

input: Is mTGR5 % trans of COCCN1C(=O)CC(c2ccc(Cl)cc2)C(C(=O)OCc2ccccc2C#N)=C1C (stereo not shown) [Example 93] strictly below 60%?
output: class 1

input: Is mTGR5 % trans of COC(=O)CN1C(=O)CC(c2ccc(Cl)cc2)C(C(=O)OCc2ccccc2OC)=C1C (stereo not shown) [Compound 73] strictly below 60%?
output: class 0

input: Is mTGR5 % trans of CC1=C(C(=O)OCc2ccc(C(F)(F)F)cc2)C(c2ccc(Cl)cc2)CC(=O)N1C (stereo not shown) [Example 80] strictly below 60%?
output: class 0

input: Is mTGR5 % trans of CC1=C(C(=O)OCc2ccc(F)cc2Cl)C(c2ccc(Cl)cc2)CC(=O)N1C (stereo not shown) [Example 81] strictly below 60%?
output: class 0
